Molecular target: human GPR40 receptor (Homo sapiens)
Sequence (O14842 whole entry): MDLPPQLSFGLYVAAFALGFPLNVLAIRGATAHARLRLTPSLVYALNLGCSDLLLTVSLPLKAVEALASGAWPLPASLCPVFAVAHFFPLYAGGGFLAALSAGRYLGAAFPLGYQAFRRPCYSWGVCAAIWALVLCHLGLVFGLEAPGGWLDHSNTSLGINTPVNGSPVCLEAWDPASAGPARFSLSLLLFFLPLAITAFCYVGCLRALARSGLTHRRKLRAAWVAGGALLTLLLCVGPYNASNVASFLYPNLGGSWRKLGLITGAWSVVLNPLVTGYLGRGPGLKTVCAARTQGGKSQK
Assay: IP1 accumulation measurements using the IPOne assay system
Conditions: 1321N1 cells stably expressing human GPR40 receptor; stimulated 1 h at 37° C.
pEC50: −log10 of the molar value.
Values of pEC50 greater than or equal to 7 map to class 1; values below map to class 0.

INSERT INTO results (compound, category) VALUES
  ('COc1c(F)cc(-c2cc(CNc3cnc([C@H]4C[C@@H]4C(=O)O)cn3)c(F)cc2F)cc1F', 'class 1'),
  ('O=C(O)[C@H]1C[C@@H]1c1cnc(NCc2cc(-c3ccc(O)c(Cl)c3)c(F)cc2F)cn1', 'class 0'),
  ('Cc1nc(-c2ccc(-c3ccc(F)c(CNc4cnc(C5CC5C(=O)O)cn4)c3)cc2)cs1 (stereo not drawn)', 'class 1'),
  ('COc1cc(F)c(-c2ccc(F)c(CNc3cnc(C4CC4C(=O)O)cn3)c2)c(F)c1 (stereo not drawn)', 'class 0'),
  ('Cc1cc(CO)cc(C)c1-c1ccc(F)c(CNc2cnc(C3CC3C(=O)O)cn2)c1 (stereo not drawn)', 'class 0'),
  ('COc1cc(C)c(-c2ccc(F)c(CNc3cnc(C4CC4C(=O)O)cn3)c2)c(C)c1 (stereo not drawn)', 'class 1'),
  ('Cc1cc(OCCC(C)(C)O)cc(C)c1-c1cc(CNc2cnc([C@H]3C[C@@H]3C(=O)O)cn2)ccc1C(F)(F)F', 'class 0'),
  ('Cc1cc(OCC2CCOCC2)cc(C)c1-c1ccc(F)c(CNc2cnc(C3CC3C(=O)O)cn2)c1 (stereo not drawn)', 'class 1'),
  ('O=C(O)C1CC1c1cnc(NCc2cc(-c3c(Cl)cccc3Cl)ccc2F)cn1 (stereo not drawn)', 'class 1'),
  ('O=C(O)C1CC1c1cnc(NCc2cc(-c3c(F)cc(OC4CC4)cc3F)ccc2F)cn1 (stereo not drawn)', 'class 1'),
  ('Cc1ccc(Cl)c(-c2ccc(F)c(CNc3cnc(C4CC4C(=O)O)cn3)c2)c1Cl (stereo not drawn)', 'class 0'),
  ('Cc1cc(-c2cc(=O)n(C)cn2)cc(C)c1-c1ccc(F)c(CNc2cnc(C3CC3C(=O)O)cn2)c1 (stereo not drawn)', 'class 1'),
  ('COc1cc(OC)c(F)c(-c2ccc(F)c(CNc3cnc(C4CC4C(=O)O)cn3)c2)c1F (stereo not drawn)', 'class 1'),
  ('Cc1cc(OCC(C)(C)O)cc(C)c1-c1ccc(F)c(CNc2cnc(C3CC3C(=O)O)cn2)c1 (stereo not drawn)', 'class 1'),
  ('Cc1cc(OCCCS(C)(=O)=O)cc(C)c1-c1cccc(CNc2cnc([C@H]3C[C@@H]3C(=O)O)cn2)c1', 'class 1'),
  ('Cc1cccc(C)c1-c1ccc(F)c(CNc2cnc(C3CC3C(=O)O)cn2)c1 (stereo not drawn)', 'class 1');

* * *

Biological target: UniProtKB O14842
Assay: IP1 accumulation measurements using the IPOne assay system
Conditions: 1321N1 cells stably expressing human GPR40 receptor; stimulated 1 h at 37° C.
endpointLabel: EC50 (nM)

INSERT INTO results (molecule, measurementtarget, readoutqualifier, assayvalue) VALUES
  ('O=C(O)C1CC1c1cnc(NCc2cc(-c3c(F)cc(F)cc3F)ccc2F)cn1 (stereo not shown) [Example 45]', 'UniProtKB O14842', '=', 34),
  ('N#Cc1cccc(C#N)c1-c1ccc(F)c(CNc2cnc(C3CC3C(=O)O)cn2)c1 (stereo not shown) [Example 57]', 'UniProtKB O14842', '>', 10000),
  ('O=C(O)C1CC1c1cnc(NCc2cc(-c3ccccc3C(F)(F)F)ccc2F)cn1 (stereo not shown) [Example 40]', 'UniProtKB O14842', '=', 51),
  ('Cc1cc(OCC(C)(C)C#N)cc(C)c1-c1ccc(F)c(CNc2cnc(C3CC3C(=O)O)cn2)c1 (stereo not shown) [Example 24]', 'UniProtKB O14842', '=', 34);

Reference source for all entries: patent US10793530B2
